// data source = the supplement of paper PMC10567573

B1: SMTNL2 (parent)
chain: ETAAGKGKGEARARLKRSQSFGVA

Variants of: B1
assay_name: protein stability index of a GFP-peptide fusion (GPS, HEK-293T) (PSI 1-6); higher = more stable;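 also: lentivirally expressed fusions sorted by FACS into six bins by GFP to DsRed ratio, PSI derived from sequencing read proportions per bin multiplied by bin number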
conditions: c terminus: a fixed tail appended
Where protein stability index equals or exceeds 4, the correct label is true; where it does not, the label is false.

• ETAAGKGKGEAKARLKRSQSFGVA [R12K] = true
• EEAAGKGKGEARARLKRSQSFGVA [T2E] = true
• ETAAGKGKGEARARCKRSQSFGVA [L15C] = true
• ETAAGKGKGCARARLKRSQSFGVA [E10C] = false
• ETAAGKGKGEARARLKRSQTFGVA [S20T] = true
• ETAAGKGKGEARARLKRSQSFNVA [G22N] = true
• ETAAGKQKGEARARLKRSQSFGVA [G7Q] = true
• MTAAGKGKGEARARLKRSQSFGVA [E1M] = false
• ETAAGKGKGEARARLKRSQSFGRA [V23R] = true
• ETAAGKGKGEARARLKRSQNFGVA [S20N] = true
• ETYAGKGKGEARARLKRSQSFGVA [A3Y] = false
• ETAAGKGKGEARARLKRFQSFGVA [S18F] = false
• ETAAGKGKGEARARLWRSQSFGVA [K16W] = false
• ETAAGKGKGEARARLKRSQSKGVA [F21K] = true
• ETAAGKGKGEARARLYRSQSFGVA [K16Y] = false
• ETAAGKGKGEARARLLRSQSFGVA [K16L] = false
• ETKAGKGKGEARARLKRSQSFGVA [A3K] = true
• ETCAGKGKGEARARLKRSQSFGVA [A3C] = false
• ETAAGKGKGEARARLKRSQSFGKA [V23K] = true
• ETAKGKGKGEARARLKRSQSFGVA [A4K] = true
• ETAAGKGKPEARARLKRSQSFGVA [G9P] = true
• ETAAGKGKGEARARLKRSQSFGPA [V23P] = true
• ETAAGKGKGEARARLKGSQSFGVA [R17G] = true
• ETAAGKGKGEARAGLKRSQSFGVA [R14G] = true
• ETAAGKGKGEARARWKRSQSFGVA [L15W] = true
• ETAAGKGKLEARARLKRSQSFGVA [G9L] = false
• ETAAGKGKGEARARLKRSMSFGVA [Q19M] = true
• ETAAGKGKGEARAALKRSQSFGVA [R14A] = false
• EDAAGKGKGEARARLKRSQSFGVA [T2D] = true
• ETAAGDGKGEARARLKRSQSFGVA [K6D] = true
• ETSAGKGKGEARARLKRSQSFGVA [A3S] = true
• ETAAGKGKGEARAELKRSQSFGVA [R14E] = true
• ETAAGKGKGEARTRLKRSQSFGVA [A13T] = true
• ETAAGKGKGEARARLDRSQSFGVA [K16D] = true
• ETAAGKGKGEPRARLKRSQSFGVA [A11P] = true
• ETAAGKGKWEARARLKRSQSFGVA [G9W] = false
• ETAAGKGKGEARAHLKRSQSFGVA [R14H] = true
• ETAHGKGKGEARARLKRSQSFGVA [A4H] = true
• ETAAGKGKGEERARLKRSQSFGVA [A11E] = true
